# study_system: HLA-A*30:01
# protocol_details: IEDB peptide-MHC binding, purified MHC/competitive/fluorescence; filed as Kd, often an IC50 or EC50 that approximates it; bounds were set here for any values at or beyond the usual limits of such assays
# stated_conditions: source organism: Human immunodeficiency virus 1
endpoint_name: Kd (µM)
Answers are plain numbers, in µM.

Look up and state reported Kd for IATLYCVHQR 5.99

----------
# study_system: HLA-B*15:01
# protocol_details: IEDB peptide-MHC binding, purified MHC/direct/fluorescence; filed as Kd, often an IC50 or EC50 that approximates it; bounds were set here for any values at or beyond the usual limits of such assays
# stated_conditions: source organism: Mycobacterium avium 104
endpoint_name: Kd

Please give measured Kd of the following entry: EHVQGDIDL ≥ 20 µM

----------
# study_system: HLA-B*08:01
# protocol_details: IEDB peptide-MHC binding, purified MHC/competitive/radioactivity; filed as Kd, often an IC50 or EC50 that approximates it; bounds were set here for any values at or beyond the usual limits of such assays
# stated_conditions: source organism: Dengue virus 2 Jamaica/1409/1983
endpoint_name: pKd
Numbers only, as −log10 of the molar value.

Solved entries (count: 4):
Specify pKd for LEKRHVLGRL and stop. 5.15

Report pKd for LQLKGMSYSM 7.15

Kindly indicate its recorded pKd. Item: AYRIKQRGIL 6.18

Consider the sequence PRRCMKPVIL . State its measured pKd. 5.61

Now, please, on to the next sequence.
Report pKd, nothing else, for this sequence: RPLKEKEENL 5.74

----------
# study_system: HLA-A*30:01
# protocol_details: IEDB peptide-MHC binding, purified MHC/competitive/radioactivity; filed as Kd, often an IC50 or EC50 that approximates it; bounds were set here for any values at or beyond the usual limits of such assays
# stated_conditions: source organism: Dengue virus 4 Philippines/H241/1956
endpoint_name: pKd
Answers are plain numbers, as −log10 of the molar value.

Solved entries:
// fetch pKd given entry LSTRDGEPLM 5.79

Kindly indicate its recorded pKd. Item: IGESSSNPTI 5.13

Continuing:
Fill in pKd for record DEAHFTDPSS 6.78

----------
# study_system: HLA-B*08:03
# protocol_details: IEDB peptide-MHC binding, purified MHC/direct/fluorescence; filed as Kd, often an IC50 or EC50 that approximates it; bounds were set here for any values at or beyond the usual limits of such assays
# stated_conditions: source organism: Mycobacterium tuberculosis str. Haarlem
endpoint_name: Kd

Give Kd for TLLESFLFY ≥ 20 µM

----------
# study_system: HLA-B*46:01
# protocol_details: IEDB peptide-MHC binding, purified MHC/competitive/fluorescence; filed as Kd, often an IC50 or EC50 that approximates it; bounds were set here for any values at or beyond the usual limits of such assays
# stated_conditions: source organism: Zaire ebolavirus
pKd: −log10 of the molar value.
endpoint_name: pKd

Completed entries (count: 3):
Using known records, supply pKd for VLSDLCNFL ≤ 4.70

For the sequence MVAKYDLLV , give its measured pKd value. ≤ 4.70

Check the records and state pKd for FLYDRLAST ≤ 4.70

Further cases:
Name the recorded pKd of the sequence listed here: ISSGETRSF ≤ 4.70

----------
# study_system: HLA-A*31:01
# protocol_details: IEDB peptide-MHC binding, purified MHC/competitive/radioactivity; filed as Kd, often an IC50 or EC50 that approximates it; bounds were set here for any values at or beyond the usual limits of such assays
# stated_conditions: source organism: Dengue virus 4 Dominica/814669/1981
endpoint_name: pKd
Give bare numbers, as −log10 of the molar value.

Please list pKd recorded for the sequence NSALTLHWFR 8.45

----------
# study_system: HLA-B*07:02
# protocol_details: IEDB peptide-MHC binding, purified MHC/competitive/fluorescence; bounds were set here for any values at or beyond the usual limits of such assays
# stated_conditions: source organism: Vaccinia virus Copenhagen
endpoint_name: IC50 (µM)
One number for each entry, in µM.

Please indicate IC50 recorded for ILRSIEGEL 33.9

----------
# study_system: HLA-B*44:02
# protocol_details: IEDB peptide-MHC binding, purified MHC/competitive/radioactivity; filed as Kd, often an IC50 or EC50 that approximates it; bounds were set here for any values at or beyond the usual limits of such assays
# stated_conditions: source organism: Variola virus
pKd: −log10 of the molar value.
endpoint_name: pKd

Tell me measured pKd for DKLVDPINY please. ≤ 4.11

----------
# study_system: HLA-A*24:03
# protocol_details: IEDB peptide-MHC binding, purified MHC/direct/fluorescence; filed as Kd, often an IC50 or EC50 that approximates it; bounds were set here for any values at or beyond the usual limits of such assays
# stated_conditions: source organism: Camelpox virus M-96
endpoint_name: Kd (µM)
One number for each entry, in µM.

Entry IFLIITKVF needs its Kd filled in; supply it. 1.1

----------
# study_system: HLA-A*26:01
# protocol_details: IEDB peptide-MHC binding, purified MHC/direct/fluorescence; filed as Kd, often an IC50 or EC50 that approximates it; bounds were set here for any values at or beyond the usual limits of such assays
# stated_conditions: source organism: Campylobacter jejuni
pKd: −log10 of the molar value.
endpoint_name: pKd

Write down pKd measured for item YWDQVTFFY ≤ 4.70

----------
Would you kindly list pKd for each of these sequences?
# study_system: HLA-A*68:02
# protocol_details: IEDB peptide-MHC binding, purified MHC/direct/fluorescence; filed as Kd, often an IC50 or EC50 that approximates it; bounds were set here for any values at or beyond the usual limits of such assays
# stated_conditions: source organism: Zaire ebolavirus
pKd: −log10 of the molar value.

Hello, please tell me recorded pKd for this one: ISSGETRSF ≤ 4.70

Please find the next sequence below.
Output pKd of IMYDHLPGF ≤ 4.70

----------
# study_system: HLA-C*07:02
# protocol_details: IEDB peptide-MHC binding, purified MHC/direct/fluorescence; filed as Kd, often an IC50 or EC50 that approximates it; bounds were set here for any values at or beyond the usual limits of such assays
# stated_conditions: source organism: Homo sapiens
endpoint_name: Kd

Specify measured Kd for YYWPRPRRY . ≤ 1 nM

----------
# study_system: HLA-B*51:01
# protocol_details: IEDB peptide-MHC binding, purified MHC/direct/fluorescence; filed as Kd, often an IC50 or EC50 that approximates it; bounds were set here for any values at or beyond the usual limits of such assays
# stated_conditions: source organism: Mycobacterium tuberculosis
endpoint_name: Kd

Please give the documented Kd of GPRGRHVVL ≥ 20 µM

----------
# study_system: HLA-A*11:01
# protocol_details: IEDB peptide-MHC binding, purified MHC/competitive/fluorescence; filed as Kd, often an IC50 or EC50 that approximates it; bounds were set here for any values at or beyond the usual limits of such assays
# stated_conditions: source organism: Bacillus anthracis str. A0389
endpoint_name: Kd (nM)
Answers are plain numbers, in nM.

Write down Kd measured for item VTECKLIYY 1260

----------
# study_system: HLA-A*03:01
# protocol_details: IEDB peptide-MHC binding, purified MHC/competitive/radioactivity; filed as Kd, often an IC50 or EC50 that approximates it; bounds were set here for any values at or beyond the usual limits of such assays
# stated_conditions: source organism: Triticum aestivum
endpoint_name: Kd (µM)
Numbers only, in µM.

Recall the reported Kd of AIILHQQQK when tested on HLA-A*03:01. 0.104

----------
# study_system: HLA-A*24:03
# protocol_details: IEDB peptide-MHC binding, purified MHC/competitive/fluorescence; filed as Kd, often an IC50 or EC50 that approximates it; bounds were set here for any values at or beyond the usual limits of such assays
# stated_conditions: source organism: Burkholderia pseudomallei 668
endpoint_name: Kd

Give the reported Kd for this sequence. ILFDRLPIA ≥ 20 µM

----------
Consider the following sequences; for each one, report its pKd.
# study_system: HLA-B*46:01
# protocol_details: IEDB peptide-MHC binding, purified MHC/direct/fluorescence; filed as Kd, often an IC50 or EC50 that approximates it; bounds were set here for any values at or beyond the usual limits of such assays
# stated_conditions: source organism: Giardia lamblia ATCC 50803
pKd: −log10 of the molar value.

Look up and report measured pKd for this entry: HCIDKTPGL ≤ 4.70

Here is another sequence to look at.
Note down pKd recorded for QPWTPVSSF ≤ 4.70

----------
# study_system: HLA-B*40:01
# protocol_details: IEDB peptide-MHC binding, purified MHC/competitive/radioactivity; filed as Kd, often an IC50 or EC50 that approximates it; bounds were set here for any values at or beyond the usual limits of such assays
# stated_conditions: source organism: Mammarenavirus whitewaterense
endpoint_name: Kd
Kindly format the answer as number then unit.

Provide Kd, tested on HLA-B*40:01, for SDHLISEIL . 8.52 µM

----------
# study_system: HLA-B*51:01
# protocol_details: IEDB peptide-MHC binding, purified MHC/direct/fluorescence; filed as Kd, often an IC50 or EC50 that approximates it; bounds were set here for any values at or beyond the usual limits of such assays
# stated_conditions: source organism: Vibrio parahaemolyticus AQ3810
endpoint_name: Kd

Tell me its Kd given LVAPHMAMM as the entry. ≥ 20 µM
